tested on: 323965-272-R-J2-PDC complex spheroid viability; experiment: Anticancer human tumor 323965-272-R-J2-PDC patient-derived pancreatic carcinoma cell line growth inhibition [CLK]; settings: second compound 0.1 µM; first compound 0.00949 µM; active = viability on the fitted dose curve at most 10% of control; inactive = the rest
The reply should be one of these categories: YES (active), NO (inactive)

Consider the following illustrative entries.
# Molecule, Qualitative label
rows = [
    ("C=CC(=O)Nc1cc(Nc2nccc(-c3cn(C)c4ccccc34)n2)c(OC)cc1N(C)CCN(C)C + CNC(=O)c1ccc(Nc2nc(OC3CCCC3)c3c(-c4ccc5nc(C)oc5c4)c[nH]c3n2)c(OC)c1", "NO"),
    ("C=CC(=O)Nc1cc(Nc2nccc(-c3cn(C)c4ccccc34)n2)c(OC)cc1N(C)CCN(C)C + CN1CCN(c2cc(C(=O)Nc3cc4cc(-c5cnn(C)c5)ccc4cn3)ccn2)CC1", "NO"),
]

How was NC(=O)C(=Cn1cnc(-c2cc(C(F)(F)F)cc(C(F)(F)F)c2)n1)c1cncnc1 + CNC(=O)c1ccc(Nc2nc(OC3CCCC3)c3c(-c4ccc5nc(C)oc5c4)c[nH]c3n2)c(OC)c1 classified in this test? NO

// same read-out, input: NC(=O)C(=Cn1cnc(-c2cc(C(F)(F)F)cc(C(F)(F)F)c2)n1)c1cncnc1 + CN1CCN(c2cc(C(=O)Nc3cc4cc(-c5cnn(C)c5)ccc4cn3)ccn2)CC1 NO

// same read-out, input: CC(C)CC(NC(=O)C(Cc1ccccc1)NC(=O)c1cnccn1)B(O)O (stereo unspecified) + CNC(=O)c1ccc(Nc2nc(OC3CCCC3)c3c(-c4ccc5nc(C)oc5c4)c[nH]c3n2)c(OC)c1 YES

// same read-out, input: CC(C)CC(NC(=O)C(Cc1ccccc1)NC(=O)c1cnccn1)B(O)O (stereo unspecified) + CN1CCN(c2cc(C(=O)Nc3cc4cc(-c5cnn(C)c5)ccc4cn3)ccn2)CC1 YES

----------
IC50: recorded values
system: 323965-272-R-J2-PDC complex spheroid viability; assay: Anticancer human tumor 323965-272-R-J2-PDC cell line growth inhibition [CLK]; conditions: curve of first compound; second compound 0.316 µM;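 note: spheroids exposed to agents for seven days before readout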

# Compound, Observed property, Assay result
records = [
    ("Nc1ccccc1NC(=O)c1ccc(CNC(=O)OCc2cccnc2)cc1 + CN1CCN(c2cc(C(=O)Nc3cc4cc(-c5cnn(C)c5)ccc4cn3)ccn2)CC1", "IC50", "< 31.6 nM"),
    ("CC1COCCN1c1cc(C2(S(C)(=N)=O)CC2)nc(-c2ccnc3[nH]ccc23)n1 (stereo not drawn) + CNC(=O)c1ccc(Nc2nc(OC3CCCC3)c3c(-c4ccc5nc(C)oc5c4)c[nH]c3n2)c(OC)c1", "IC50", "1180 nM"),
]

Please turn your attention to the following entry.
Hello, I am looking for reported IC50 with 323965-272-R-J2-PDC complex spheroid viability for Nc1ccn(C2OC(CO)C(O)C2(F)F)c(=O)n1 (stereo not drawn) + CN1CCN(c2cc(C(=O)Nc3cc4cc(-c5cnn(C)c5)ccc4cn3)ccn2)CC1 . Could you help? < 31.6 nM

----------
test system: 323965-272-R-J2-PDC complex spheroid viability; experiment: Anticancer human tumor 323965-272-R-J2-PDC cell line growth inhibition [CLK]; conditions: second compound 0.1 µM; first compound 0.316 µM; stronger effect = lower value;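 note: spheroids exposed to agents for seven days before readout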;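 for viability, T/C: percent of DMSO vehicle control wells so 100% = untreated growth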
viability, T/C: recorded values
# number only, unit % dropped from output

# Compound, Unit of measure, viability, T/C
records = [
    ("CC1(C)CCC(CN2CCN(c3ccc(C(=O)NS(=O)(=O)c4ccc(NCC5CCOCC5)c([N+](=O)[O-])c4)c(Oc4cnc5[nH]ccc5c4)c3)CC2)=C(c2ccc(Cl)cc2)C1 + CN1CCN(c2cc(C(=O)Nc3cc4cc(-c5cnn(C)c5)ccc4cn3)ccn2)CC1", "%", 65.4),
]

Please turn your attention to the following entry.
Which viability, T/C is reported for this compound? CCc1c2c(nc3ccc(O)cc13)-c1cc3c(c(=O)n1C2)COC(=O)[C@]3(O)CC + CNC(=O)c1ccc(Nc2nc(OC3CCCC3)c3c(-c4ccc5nc(C)oc5c4)c[nH]c3n2)c(OC)c1 25

----------
tested on: 323965-272-R-J2-PDC complex spheroid viability; experiment: Anticancer human tumor 323965-272-R-J2-PDC cell line growth inhibition [CLK]; conditions: second compound 3.16 µM; first compound 0.316 µM; active = viability on the fitted dose curve at most 10% of control; inactive = the rest;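 note: spheroids exposed to agents for seven days before readout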
The reply should be one of these categories: 1 for active, 0 for inactive

Consider the following illustrative entries.
# Compound, Qualitative label
measured = [
    ("CCN1CCN(Cc2ccc(Nc3ncc(F)c(-c4cc(F)c5nc(C)n(C(C)C)c5c4)n3)nc2)CC1 + CNC(=O)c1ccc(Nc2nc(OC3CCCC3)c3c(-c4ccc5nc(C)oc5c4)c[nH]c3n2)c(OC)c1", 0),
    ("CC(CO)NC(=O)c1cc(-c2ccc(Cl)cc2)nn(-c2cnn(C)c2)c1=O (stereo unspecified) + CNC(=O)c1ccc(Nc2nc(OC3CCCC3)c3c(-c4ccc5nc(C)oc5c4)c[nH]c3n2)c(OC)c1", 0),
    ("CCN1CCN(Cc2ccc(Nc3ncc(F)c(-c4cc(F)c5nc(C)n(C(C)C)c5c4)n3)nc2)CC1 + CN1CCN(c2cc(C(=O)Nc3cc4cc(-c5cnn(C)c5)ccc4cn3)ccn2)CC1", 1),
    ("COc1ccc([C@@H](O)c2cc(-c3ncnc4cc(N5CCOCC5)ccc34)c(F)cc2Cl)nn1 + CN1CCN(c2cc(C(=O)Nc3cc4cc(-c5cnn(C)c5)ccc4cn3)ccn2)CC1", 1),
]

How was CC(=O)O[C@H]1C(=O)[C@@]2(C)[C@H]([C@H](OC(=O)c3ccccc3)[C@]3(O)C[C@H](OC(=O)[C@H](O)[C@@H](NC(=O)c4ccccc4)c4ccccc4)C(C)=C1C3(C)C)[C@]1(OC(C)=O)CO[C@@H]1C[C@@H]2O + CNC(=O)c1ccc(Nc2nc(OC3CCCC3)c3c(-c4ccc5nc(C)oc5c4)c[nH]c3n2)c(OC)c1 classified in this test? 0

// same read-out, input: CC(Nc1ccc2c(c1)OCCn1cc(N3C(=O)OCC3C(F)F)nc1-2)C(N)=O (stereo unspecified) + CN1CCN(c2cc(C(=O)Nc3cc4cc(-c5cnn(C)c5)ccc4cn3)ccn2)CC1 1

// same read-out, input: O=c1[nH]cc(F)c(=O)[nH]1 + CN1CCN(c2cc(C(=O)Nc3cc4cc(-c5cnn(C)c5)ccc4cn3)ccn2)CC1 1

// same read-out, input: CCc1c2c(nc3ccc(O)cc13)-c1cc3c(c(=O)n1C2)COC(=O)[C@]3(O)CC + CN1CCN(c2cc(C(=O)Nc3cc4cc(-c5cnn(C)c5)ccc4cn3)ccn2)CC1 1

// same read-out, input: O=C(c1cc(Cc2n[nH]c(=O)c3ccccc23)ccc1F)N1CCN(C(=O)C2CC2)CC1 + CN1CCN(c2cc(C(=O)Nc3cc4cc(-c5cnn(C)c5)ccc4cn3)ccn2)CC1 1

// same read-out, input: Nc1ccn(C2OC(CO)C(O)C2(F)F)c(=O)n1 (stereo unspecified) + CN1CCN(c2cc(C(=O)Nc3cc4cc(-c5cnn(C)c5)ccc4cn3)ccn2)CC1 1

// same read-out, input: COC1C=CCC(C)C(C)S(=O)(=O)NC(=O)c2ccc3c(c2)N(CC2CCC21)CC1(CCCc2cc(Cl)ccc21)CO3 (stereo unspecified) + CN1CCN(c2cc(C(=O)Nc3cc4cc(-c5cnn(C)c5)ccc4cn3)ccn2)CC1 1

----------
system: 323965-272-R-J2-PDC complex spheroid viability; test: Anticancer human tumor 323965-272-R-J2-PDC cell line growth inhibition [CLK]; conditions: second compound 0.1 µM; first compound 0.0949 µM; active means viability on the fitted dose curve at most 10% of control; inactive means the rest;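 note: spheroids exposed to agents for seven days before readout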
The reply should be one of these categories: T (active), F (inactive)

Consider the following illustrative entries.
# Compound, Qualitative label
records = [
    ("CC(C)CC(NC(=O)C(Cc1ccccc1)NC(=O)c1cnccn1)B(O)O (stereo unspecified) + CN1CCN(c2cc(C(=O)Nc3cc4cc(-c5cnn(C)c5)ccc4cn3)ccn2)CC1", "T"),
    ("C=CC(=O)Nc1cc(Nc2nccc(-c3cn(C)c4ccccc34)n2)c(OC)cc1N(C)CCN(C)C + CN1CCN(c2cc(C(=O)Nc3cc4cc(-c5cnn(C)c5)ccc4cn3)ccn2)CC1", "F"),
    ("C=CC(=O)Nc1cc(Nc2nccc(-c3cn(C)c4ccccc34)n2)c(OC)cc1N(C)CCN(C)C + CNC(=O)c1ccc(Nc2nc(OC3CCCC3)c3c(-c4ccc5nc(C)oc5c4)c[nH]c3n2)c(OC)c1", "F"),
]

How was NC(=O)C(=Cn1cnc(-c2cc(C(F)(F)F)cc(C(F)(F)F)c2)n1)c1cncnc1 + CN1CCN(c2cc(C(=O)Nc3cc4cc(-c5cnn(C)c5)ccc4cn3)ccn2)CC1 classified in this test? F

// same read-out, input: NC(=O)C(=Cn1cnc(-c2cc(C(F)(F)F)cc(C(F)(F)F)c2)n1)c1cncnc1 + CNC(=O)c1ccc(Nc2nc(OC3CCCC3)c3c(-c4ccc5nc(C)oc5c4)c[nH]c3n2)c(OC)c1 F

// same read-out, input: CC(C)CC(NC(=O)C(Cc1ccccc1)NC(=O)c1cnccn1)B(O)O (stereo unspecified) + CNC(=O)c1ccc(Nc2nc(OC3CCCC3)c3c(-c4ccc5nc(C)oc5c4)c[nH]c3n2)c(OC)c1 T
